The following molecules have recorded pIC50 on BCL-2 (Homo sapiens (Human), UniProt P10415).
Sequence (P10415 whole entry): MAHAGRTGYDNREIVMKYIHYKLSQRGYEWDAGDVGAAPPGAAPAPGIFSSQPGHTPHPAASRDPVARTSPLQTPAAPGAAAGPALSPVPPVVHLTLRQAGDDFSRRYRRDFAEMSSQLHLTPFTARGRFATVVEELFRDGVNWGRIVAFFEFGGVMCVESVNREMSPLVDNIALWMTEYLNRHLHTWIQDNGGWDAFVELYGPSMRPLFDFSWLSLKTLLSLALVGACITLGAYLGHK
pIC50: −log10 of the molar value.

pIC50 value, target or system BCL-2 (Homo sapiens (Human), UniProt P10415), for CN1CCN(C(=O)c2cccc(CN(C(=O)c3cc(-c4cc5c(cc4C(=O)N4Cc6ccccc6C[C@H]4CN4CCOCC4)OCO5)n4c3CCCC4)c3ccc(O)cc3)c2)CC1 : 8.00 to 8.30

pIC50 value, target or system BCL-2 (Homo sapiens (Human), UniProt P10415), for O=C(c1cc(-c2cc3c(cc2C(=O)N2Cc4ccccc4C[C@H]2CN2CCOCC2)OCO3)n2c1CCCC2)N(Cc1ccccc1)c1ccc(O)cc1 : 8.00 to 8.30

pIC50 value, target or system BCL-2 (Homo sapiens (Human), UniProt P10415), for Cc1ccc(C(F)(F)F)cc1CN(C(=O)c1cc(-c2cc3c(cc2C(=O)N2Cc4ccccc4C[C@H]2CN2CCOCC2)OCO3)n2c1CCCC2)c1ccc(O)cc1 : 7.30 to 8.00

pIC50 value, target or system BCL-2 (Homo sapiens (Human), UniProt P10415), for COc1ccccc1CN(C(=O)c1cc(-c2cc3c(cc2C(=O)N2Cc4ccccc4C[C@H]2CN2CCOCC2)OCO3)n2c1CCCC2)c1ccc(O)cc1 : ≥ 8.30
